- Measured target: rat TRPV1 (Rattus norvegicus, UniProt O35433)
- Construct: expressed in transfected cells
- Sequence (O35433 whole entry): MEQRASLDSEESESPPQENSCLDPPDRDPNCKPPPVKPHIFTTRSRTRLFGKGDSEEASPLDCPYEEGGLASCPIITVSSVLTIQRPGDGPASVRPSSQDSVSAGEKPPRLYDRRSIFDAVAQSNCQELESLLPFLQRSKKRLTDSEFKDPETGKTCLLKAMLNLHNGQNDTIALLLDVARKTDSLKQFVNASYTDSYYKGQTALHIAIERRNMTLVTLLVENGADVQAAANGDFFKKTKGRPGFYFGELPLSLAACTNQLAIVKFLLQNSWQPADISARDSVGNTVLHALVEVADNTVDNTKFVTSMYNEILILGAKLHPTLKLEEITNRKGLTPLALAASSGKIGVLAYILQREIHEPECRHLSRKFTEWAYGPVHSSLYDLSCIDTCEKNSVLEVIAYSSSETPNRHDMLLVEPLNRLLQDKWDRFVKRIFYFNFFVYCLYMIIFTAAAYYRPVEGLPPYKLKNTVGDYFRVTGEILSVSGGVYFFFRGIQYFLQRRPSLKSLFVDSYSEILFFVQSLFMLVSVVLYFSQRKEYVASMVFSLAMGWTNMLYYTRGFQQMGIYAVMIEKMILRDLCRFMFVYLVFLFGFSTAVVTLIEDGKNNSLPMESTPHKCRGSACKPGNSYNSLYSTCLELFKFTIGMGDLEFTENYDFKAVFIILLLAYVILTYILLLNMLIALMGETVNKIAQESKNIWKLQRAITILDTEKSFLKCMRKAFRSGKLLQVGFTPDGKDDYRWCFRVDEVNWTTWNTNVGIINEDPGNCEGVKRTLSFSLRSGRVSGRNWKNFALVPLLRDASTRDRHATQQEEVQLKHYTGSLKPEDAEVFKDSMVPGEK
- Method description: capsaicin-induced 45Ca2+-uptake in TRPV1-NIH3T3 cells
- Type: cell-based
- Run parameters: 2 µM capsaicin, 10 min, 2×10^−5 M extracellular Ca2+, room temperature, read-out: IC50, inhibition of capsaicin-induced 45Ca2+-uptake
Listing: IC50 of selected molecules
Give the number; µM is assumed, so skip it.

CN(C)CCCN1c2ccccc2Sc2ccc(Cl)cc21	70

Reported IC50 for Fc1cc(F)cc(C[n+]2ccn(CC(OCc3ccc(Cl)cc3Cl)c3ccc(Cl)cc3Cl)c2)c1 (stereo not drawn) was 8

Reported IC50 for Clc1ccc(COC(Cn2cc[n+](CC3CCCCC3)c2)c2ccc(Cl)cc2Cl)c(Cl)c1 (stereo not drawn) was 8
